For each of the compounds below, state its pEC50.
Molecular target: Neuronal acetylcholine receptor subunit alpha-7 (Homo sapiens, UniProt P36544)
Sequence (P36544 whole entry): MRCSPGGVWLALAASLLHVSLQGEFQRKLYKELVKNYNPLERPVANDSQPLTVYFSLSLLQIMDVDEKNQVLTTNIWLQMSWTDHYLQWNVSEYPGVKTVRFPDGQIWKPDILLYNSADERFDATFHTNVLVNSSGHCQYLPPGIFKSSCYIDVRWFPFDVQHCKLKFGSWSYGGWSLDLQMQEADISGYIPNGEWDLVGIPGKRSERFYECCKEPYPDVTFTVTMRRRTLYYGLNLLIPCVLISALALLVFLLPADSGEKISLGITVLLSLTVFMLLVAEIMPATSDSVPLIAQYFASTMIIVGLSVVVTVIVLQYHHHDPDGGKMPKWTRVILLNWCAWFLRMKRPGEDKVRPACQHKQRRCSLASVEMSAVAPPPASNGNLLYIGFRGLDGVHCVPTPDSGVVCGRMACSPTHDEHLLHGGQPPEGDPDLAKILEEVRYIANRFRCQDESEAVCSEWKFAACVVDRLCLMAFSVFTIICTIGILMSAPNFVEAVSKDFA
Experiment: Positive allosteric modulator activity at human alpha7 nAChR expressed in Flp-In-HEK293 cells co-expressing RIC-3 assessed as potentiation of PNU282987-induced calcium influx measured after 10 mins by FLIPR assay
Type: cell-based, Flp-In-293
Details: read-out: EC50
// field semantics: pEC50 = negative decimal log of concentration (mol/L)

Form: compound = Cc1ccc(OC2CN(C(=O)NCc3ccc4c(ccn4C)c3)C2)cc1 ; pEC50 = 6.21

Form: compound = Cc1ccc(CN2CCN(C(=O)C(=O)Nc3cnc4c(ccn4C)c3)CC2)cc1 ; pEC50 = 6.40

Form: compound = Cc1ccc(Oc2ccc(C(=O)NCc3ccc4c(ccn4C)c3)cc2)cc1 ; pEC50 = 7.40

Form: compound = Cc1ccc(CN2CCN(C(=O)C(=O)Nc3ccc4c(F)cn(C)c4c3)CC2)cc1 ; pEC50 = 5.85

Form: compound = Cn1ccc2cc(CNC(=O)N3CC(COc4ccccc4)C3)ccc21 ; pEC50 = 6.74

Form: compound = Cn1ccc2cc(CNC(=O)N3CC(COc4ccc(C#N)cc4)C3)ccc21 ; pEC50 = 6.46

Form: compound = Cc1ccc(CN2CCN(C(=O)C(=O)Nc3ccc4c(c3)c(C)cn4C)CC2)cc1 ; pEC50 = 6.04

Form: compound = Cc1ccc(O[C@H]2CC[C@H](C(=O)C(=O)Nc3ccc4c(ccn4C)c3)CC2)cn1 ; pEC50 = 6.17

Form: compound = Cc1ccc(Oc2ccc(C(=O)C(=O)Nc3ccc4c(ccn4C)c3)cn2)cc1 ; pEC50 = 6.89

Form: compound = Cc1ccc(CN2CCN(C(=O)C(=O)Nc3ccc4c(c3)c(Cl)cn4C)CC2)cc1 ; pEC50 = 6.38

Form: compound = Cc1ccc(CN2CCN(C(=O)NCc3ccc4c(ccn4C)c3)CC2)cc1 ; pEC50 = 6.31

Form: compound = Cn1ccc2cc(CNC(=O)N3CC(COc4ccc(OC(F)(F)F)cc4)C3)ccc21 ; pEC50 = 7.60

Form: compound = Cc1ccc(CN2CCN(C(=O)C(=O)Nc3cnc4c(c3)c(F)cn4C)CC2)cc1 ; pEC50 = 6.68

Form: compound = Cn1ccc2cc(CNC(=O)N3CC(COc4ccc(Cl)cc4)C3)ccc21 ; pEC50 = 7.26
